test: self-splicing fitness, log relative to wild type (ln ratio); higher = more splicing; Tetrahymena group I intron in knt gene, E. coli kanamycin selection, DiMSum; sequences stand for … in CUCUCU…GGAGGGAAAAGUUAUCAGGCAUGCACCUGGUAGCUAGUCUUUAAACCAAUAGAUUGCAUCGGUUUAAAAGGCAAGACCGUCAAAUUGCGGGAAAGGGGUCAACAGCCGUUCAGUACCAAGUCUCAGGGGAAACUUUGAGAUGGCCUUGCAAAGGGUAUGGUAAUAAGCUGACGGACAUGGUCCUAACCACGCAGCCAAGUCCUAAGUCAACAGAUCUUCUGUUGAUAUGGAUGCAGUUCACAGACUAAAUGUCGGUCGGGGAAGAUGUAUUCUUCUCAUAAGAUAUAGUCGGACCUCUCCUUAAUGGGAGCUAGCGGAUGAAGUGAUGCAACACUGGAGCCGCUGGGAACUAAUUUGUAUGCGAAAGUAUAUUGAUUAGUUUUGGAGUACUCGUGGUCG; details: 37 °C;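 further: selection with 25 µg/mL kanamycin versus none on LB agar overnight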

sequence-record	self-splicing fitness (ln)
AGACAGCAAUAUUACGGGGC	-1.69
UUGUAGCAAUAUUACGUUAC	-1.65
UAGAAGCAAUAUUACGAACG	0.576

----------
assay: self-splicing fitness, log relative to wild type (ln ratio); higher = more splicing; Tetrahymena group I intron in knt gene, E. coli kanamycin selection, DiMSum; sequences stand for … in CUCUCU…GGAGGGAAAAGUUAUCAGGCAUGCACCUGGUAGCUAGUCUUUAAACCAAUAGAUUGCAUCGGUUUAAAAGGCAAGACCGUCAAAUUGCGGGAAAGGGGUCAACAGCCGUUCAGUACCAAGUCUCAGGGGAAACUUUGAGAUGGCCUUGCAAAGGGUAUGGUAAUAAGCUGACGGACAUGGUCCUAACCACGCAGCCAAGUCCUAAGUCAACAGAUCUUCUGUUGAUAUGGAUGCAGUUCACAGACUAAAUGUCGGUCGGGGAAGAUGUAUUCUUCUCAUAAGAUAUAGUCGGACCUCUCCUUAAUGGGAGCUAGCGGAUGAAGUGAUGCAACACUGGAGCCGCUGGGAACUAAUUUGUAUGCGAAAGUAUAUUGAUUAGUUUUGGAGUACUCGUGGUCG; details: 37 °C

sequence-record	self-splicing fitness (ln)
GGCGAGCAAUAUUACGGCCG	-0.882
GUCGAGCAAUAUUACGGGAG	-2.4
CAACAGCAAUAUUACGGUAA	-1.61
AUGUAGCAAUAUUACGAUCU	0.524
CUCGAGCAAUAUUACGGCCU	-1.37
CUUAAGCAAUAUUACGCGCG	-0.513
AUGUAGCAAUAUUACGAGAA	-1.01
AAUCAGCAAUAUUACGGAAC	-0.769
AGGGAGCAAUAUUACGGUAA	-2.46
UGCUAGCAAUAUUACGCCCG	0.807
GUAUAGCAAUAUUACGCAAU	-2.85
AUCGAGCAAUAUUACGGUAG	-1.93
CACCAGCAAUAUUACGUAAA	-1.6
CAGGAGCAAUAUUACGGCGU	-2.84

----------
experiment: self-splicing fitness, log relative to wild type (ln ratio); higher = more splicing; Tetrahymena group I intron in knt gene, E. coli kanamycin selection, DiMSum; sequences stand for … in CUCUCU…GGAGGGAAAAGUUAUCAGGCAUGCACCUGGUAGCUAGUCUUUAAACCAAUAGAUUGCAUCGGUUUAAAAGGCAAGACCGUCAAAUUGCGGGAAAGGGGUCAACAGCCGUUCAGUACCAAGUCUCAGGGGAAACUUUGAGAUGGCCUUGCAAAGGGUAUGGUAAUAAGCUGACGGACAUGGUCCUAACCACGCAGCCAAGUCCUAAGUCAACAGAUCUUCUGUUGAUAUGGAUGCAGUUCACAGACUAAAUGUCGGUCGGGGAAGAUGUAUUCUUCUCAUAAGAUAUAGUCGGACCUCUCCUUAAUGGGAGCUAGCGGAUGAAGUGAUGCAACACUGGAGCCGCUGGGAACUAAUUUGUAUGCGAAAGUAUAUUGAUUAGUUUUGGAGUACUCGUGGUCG; conditions: 30 °C
If the reported self-splicing fitness (ln) equals or exceeds -1, assign true. If not, assign false.

sequence-record	category-label
CAGGAGCAAUAUUACGUAAC	false
GACUAGCAAUAUUACGAGUU	false
CUCAAGCAAUAUUACGAUCA	false
CUCUAGCAAUAUUACGUUGA	false
CCUGAGCAAUAUUACGUUUC	false
GGGAAGCAAUAUUACGUGCG	false
CGAUAGCAAUAUUACGUAGA	false
GCCCAGCAAUAUUACGAUGC	true
GCUGAGCAAUAUUACGGGAC	false
AGACAGCAAUAUUACGUCUG	false
AGGAAGCAAUAUUACGAGUC	false
GGGGAGCAAUAUUACGGUGA	false
GAAAAGCAAUAUUACGUUCU	false
ACGGAGCAAUAUUACGAAGC	false
AAGAAGCAAUAUUACGAUGU	false
CAUUAGCAAUAUUACGUAGG	true
GUAGAGCAAUAUUACGUGAG	false
UGUGAGCAAUAUUACGCGUG	false
AGCCAGCAAUAUUACGGUUA	true
GAGCAGCAAUAUUACGAUAA	false
UUAAAGCAAUAUUACGGUGG	true
CAACAGCAAUAUUACGGAGU	false

----------
test: self-splicing fitness, log relative to wild type (ln ratio); higher = more splicing; Tetrahymena group I intron in knt gene, E. coli kanamycin selection, DiMSum; sequences stand for … in CUCUCU…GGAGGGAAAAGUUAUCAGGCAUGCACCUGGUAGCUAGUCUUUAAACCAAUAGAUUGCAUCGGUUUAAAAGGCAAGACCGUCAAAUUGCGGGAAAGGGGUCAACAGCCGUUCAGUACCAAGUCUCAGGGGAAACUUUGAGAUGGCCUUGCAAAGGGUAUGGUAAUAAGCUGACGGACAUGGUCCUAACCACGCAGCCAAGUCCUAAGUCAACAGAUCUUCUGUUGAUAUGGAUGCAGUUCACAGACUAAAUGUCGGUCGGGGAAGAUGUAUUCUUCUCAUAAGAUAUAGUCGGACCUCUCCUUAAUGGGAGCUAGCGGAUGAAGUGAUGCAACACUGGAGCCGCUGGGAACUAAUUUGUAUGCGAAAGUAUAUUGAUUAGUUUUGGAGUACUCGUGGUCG; conditions: 37 °C
If the reported self-splicing fitness (ln) equals or exceeds -1, assign Met. If not, assign Not met.

sequence-record	category-label
AAUGAGCAAUAUUACGCGUU	Not met
GUUAAGCAAUAUUACGUGCG	Not met
CAUAAGCAAUAUUACGCUUA	Not met
GAGCAGCAAUAUUACGGGUA	Not met
CCUUAGCAAUAUUACGCUAC	Not met
AUGUAGCAAUAUUACGCUGG	Not met
GUCAAGCAAUAUUACGUGAG	Met
UUUUAGCAAUAUUACGUUCU	Not met
GACGAGCAAUAUUACGUUUC	Not met
ACUCAGCAAUAUUACGCGAA	Met
UCAUAGCAAUAUUACGAUCC	Not met
GAAUAGCAAUAUUACGGUGG	Not met
UAGAAGCAAUAUUACGUCGA	Met
GCAGAGCAAUAUUACGGCUA	Met
CCAAAGCAAUAUUACGCCGA	Not met
UAAAAGCAAUAUUACGACUU	Met
AGCAAGCAAUAUUACGCGUU	Not met
AAUCAGCAAUAUUACGCGUG	Met
AUUGAGCAAUAUUACGUAGC	Not met
AGCAAGCAAUAUUACGGGUC	Not met
GAUAAGCAAUAUUACGUGGA	Not met
CCUGAGCAAUAUUACGACAG	Met
UGUUAGCAAUAUUACGUAAG	Met
UGGAAGCAAUAUUACGUACA	Met
UGGGAGCAAUAUUACGCGGA	Not met
AGUGAGCAAUAUUACGCAGA	Not met
CUUCAGCAAUAUUACGAGCC	Not met
ACGUAGCAAUAUUACGAGAA	Not met
GUUUAGCAAUAUUACGCUCA	Met
UUUGAGCAAUAUUACGAAUG	Met
CACAAGCAAUAUUACGAGCG	Met
GCGCAGCAAUAUUACGUUUC	Met
GUGUAGCAAUAUUACGGGUA	Not met
AUCGAGCAAUAUUACGAAUA	Not met
UACGAGCAAUAUUACGCAAC	Not met
AUAUAGCAAUAUUACGCGCG	Met
GCUGAGCAAUAUUACGAUGA	Not met
CUGUAGCAAUAUUACGUCUA	Not met
UGCGAGCAAUAUUACGAGUU	Not met
CCCAAGCAAUAUUACGCGGC	Not met
AUUUAGCAAUAUUACGGUGC	Not met
CGCCAGCAAUAUUACGGCGC	Not met
UUGUAGCAAUAUUACGGAGG	Not met
UAAAAGCAAUAUUACGGUAG	Met
UUCAAGCAAUAUUACGGGCA	Met
AGUUAGCAAUAUUACGCCCA	Met
AUGUAGCAAUAUUACGCAGA	Met
UUUGAGCAAUAUUACGGUUC	Not met
GACAAGCAAUAUUACGCUCC	Not met
ACGCAGCAAUAUUACGCCUA	Met
AAGAAGCAAUAUUACGGGCU	Not met
AAACAGCAAUAUUACGGGAA	Not met
UCACAGCAAUAUUACGUCGC	Not met
GCUCAGCAAUAUUACGAUUC	Met
AGAUAGCAAUAUUACGAAGA	Not met
AGGCAGCAAUAUUACGCGCC	Met
AUCAAGCAAUAUUACGAUCA	Met

Reference source for all entries: the supplement of paper PMC7877785
